- assay.procedure: NCI Yeast Anticancer Drug Screen. Data for the mlh1 rad18 strain (AID 175)
- applied.conditions: S. cerevisiae mlh1 rad18 strain growth inhibition, active compounds read high; at 50.0 µM unless noted
This is part of a sample that, as a whole, favours compounds with a hit. Of some 79,000 tested, about 15% had one in any assay. Active and inactive are the calls of the source. No stated cut-off is given here; in the data, active means growth inhibition above about 70%; inactive means the rest.
Below: a set of entries, each annotated with reported growth inhibition.
quantity.name: growth inhibition

| compound | reported.result |
| --- | --- |
| O=C(c1ccc(Cl)cc1)N1CCC(CCCc2ccccc2)CC1 | -3.2% (inactive) |
| Cc1cccc(NC(=O)C(=O)C(C(=O)c2ccc3ccccc3c2)C2OC(=O)c3ccccc32)c1C (stereo not drawn) | -6.75% (inactive) |
| Nc1ccc(S(=O)(=O)CCS(=O)(=O)c2ccc(N)cc2)cc1 | 0.8% (inactive) |
| OCCc1ccc2ccccc2n1 | 3.5% (inactive) |
| Oc1c(CN2CCOCC2)ccc(CN2CCOCC2)c1O | 35.5% (inactive) |
| NNC(=O)C(c1ccccc1)c1ccccc1 | -0.25% (inactive) |
| COc1ccc(/C(=N\NC(=S)NN)C(c2ccc(OC)cc2)C2C(=O)Oc3ccccc32)cc1 (stereo not drawn) | 2.85% (inactive) |
| Fc1ccccc1-c1nn2c(C34CC5CC(CC(C5)C3)C4)nnc2s1 | -52% (inactive) |
| CC(C)(C)NC(=O)Nc1ccc2ccccc2c1 | -11.3% (inactive) |
| COc1ccc(-c2sc(C)nc2O)cc1 | 7.2% (inactive) |
| O=C(CCCN1CCC2(CC1)CC(=O)N(N1CCOCC1)C2=O)c1ccc(F)cc1 | 14.9% (inactive) |
| CCOc1ccc(C(=O)C[N+]2(CCc3ccccc3)CCOCC2)cc1 | 41% (inactive) |
| O=C(O)CCNC(=O)CNC(=O)OCc1ccccc1 | -9.65% (inactive) |
| Cc1ccc(N=C2S/C(=C3/CCC=C3N3CCOCC3)N(c3ccc(Cl)cc3)C2=Nc2ccc(C)cc2)cc1 | -28% (inactive) |
| COC(=O)CCC(NC(=S)N/N=C(\C)c1ccco1)C(=O)OC (stereo not drawn) | -16.3% (inactive) |
| CN(C)c1ccc(/C=C(\C#N)C(=O)O)cc1 | 38.2% (inactive) |
| COCCOC(=O)c1ccc(C)cc1 | 8.1% (inactive) |
| CCOC(=O)C(C)NC(=O)C(C)NC(=O)C(C)NC(=O)C(C)NC(=O)C(C)NC(=O)OCc1ccccc1 (stereo not drawn) | -46.8% (inactive) |
| OC1CSc2nc3ccccc3n2C1 (stereo not drawn) | 38.9% (inactive) |
| O=C1/C(=C\c2ccccc2)Sc2cc[nH]c21 | 17.2% (inactive) |
| CCOC(=O)CN(Cn1cncn1)Cn1cncn1 | 10.8% (inactive) |
| Cc1cnc(N)cn1 (tested in a mixture with another compound) | 8.1% (inactive) |
| CCOC(=O)C1CC1 | -2.7% (inactive) |

###

- assay.procedure: NCI Yeast Anticancer Drug Screen. Data for the cln2 rad14 strain (AID 165);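 further: 0% = growth equal to vehicle treated cultures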
- applied.conditions: S. cerevisiae cln2 rad14 strain, active compounds read high; at 50.0 µM unless noted
Compounds without any hit were thinned out: in the full panel of roughly 79,000, 15% have a hit. The source made the active and inactive calls. Cut-off read from the data, not from the text of the source: active = growth inhibition above about 70%; inactive = the rest. Where a SMILES comes first, the peptide text is derived from it. The star is where a group is joined. Cbz = O=C(OCc1ccccc1)*
Recorded measurements of growth inhibition, one per entry
quantity.name: growth inhibition

| compound | quantity.name | reported.result |
| --- | --- | --- |
| Cc1ccc2c(c1)C1(c3ccc(Cl)cc3Cl)Oc3ccc(C)cc3C(c3ccc(Cl)cc3Cl)(O2)O1 | growth inhibition | -4.65% (inactive) |
| CC1=C(C#N)C(=C(C#N)C#N)OC1(C)Cc1ccccc1 (centres undefined) | growth inhibition | 8.55% (inactive) |
| O=C1C(=O)c2ccccc2C(O)=C1CN1CCOCC1 | growth inhibition | 4.65% (inactive) |
| Nc1nc(-c2cc(Br)ccc2N=NN2CCCCC2)nc2ccc(Br)cc12 | growth inhibition | 46% (inactive) |
| NC1CCCC2CCC(N)C12 (centres undefined) | growth inhibition | 24.6% (inactive) |
| CC1NC(=O)OC12CCCCC2 (centres undefined) | growth inhibition | -27.6% (inactive) |
| CC(=O)c1oc2cc([N+](=O)[O-])c3ccccc3c2c1C | growth inhibition | 11.6% (inactive) |
| O=C(Nc1ccc(Cl)cc1)C(Cl)C(Cl)c1ccc(Cl)cc1 (centres undefined) | growth inhibition | -22.4% (inactive) |
| O=C(NCc1ccc(Cl)cc1)NC1CCCCC1 | growth inhibition | 2.7% (inactive) |
| CCOC(=O)c1cc2ccccc2cc1N=N | growth inhibition | -2.7% (inactive) |
| Cc1cc2cc3c(=O)[nH]c(=O)[nH]c3nc2cc1C | growth inhibition | -8.6% (inactive) |
| O=C1CCC(=O)N1C(c1ccccc1)c1ccccc1 | growth inhibition | -30.9% (inactive) |
| Cc1ccc(S(=O)(=O)OCC2C3C=CC(C4C=CC43)C2COS(=O)(=O)c2ccc(C)cc2)cc1 (centres undefined) | growth inhibition | -25.3% (inactive) |
| O=C(NC(=S)Nc1ccccc1F)c1cccc([N+](=O)[O-])c1 | growth inhibition | 11.4% (inactive) |
| O=C(CCC/C(CC(=O)c1ccc(Br)cc1)=N\O)Nc1ccccc1 | growth inhibition | 19.6% (inactive) |
| COc1cccc2cc3c(cc12)C(=O)C(C)=C(C)C3=O | growth inhibition | -9.25% (inactive) |
| Nc1ccc(C(=O)O)cc1N | growth inhibition | 15.3% (inactive) |
| Cc1ccc(C2=Nc3ccccc3NC(=O)C2)cc1 | growth inhibition | 22.2% (inactive) |
| O=[N+]([O-])c1cc(F)ccc1S(=O)(=O)c1ccccc1 | growth inhibition | 1.85% (inactive) |
| C=CC[Si](CC=C)(OCC)OCC | growth inhibition | 20.7% (inactive) |
| O=S1(=O)C2C=CC1C(Br)C(Br)CC2 (centres undefined) | growth inhibition | 12% (inactive) |
| O=C(CSc1nc(-c2ccccc2)c(-c2ccccc2)[nH]1)N/N=C/c1ccc(O)cc1 | growth inhibition | -21.9% (inactive) |
| CC1(C)CC(=O)C=C(NCc2ccccc2)C1 | growth inhibition | -24.9% (inactive) |
| COC(=O)C1=C2C3(O)CC4CC5C3CCC(C)N5C24C2CCCC(OC)C2C1OC(=O)c1ccccc1 (centres undefined) | growth inhibition | 8.9% (inactive) |
| CCN(CC)C/C(C)=C(/c1ccccc1)c1ccccc1S(N)(=O)=O | growth inhibition | -30.6% (inactive) |
| CN(C)CC(C(=O)/C=C/c1ccccc1)C(C)(C)C (centres undefined) | growth inhibition | 11.6% (inactive) |
| CCC1CN2CCc3cc(OC)c(OC)cc3C2CC1=O (centres undefined) | growth inhibition | -2.65% (inactive) |
| CC(=O)C[N+](C)(C)C | growth inhibition | -7.45% (inactive) |
| NC(=O)C(Cc1ccccc1)NC(=O)C(Cc1ccccc1)NC(=O)C(Cc1ccccc1)NC(=O)OCc1ccccc1 (stereo not drawn) (Cbz-Phe-Phe-Phe-NH2; configuration not given here) | growth inhibition | -12% (inactive) |
| O=C(/C(Cl)=N/O)c1ccc(O)c(O)c1 | growth inhibition | 24.6% (inactive) |
| O=[N+]([O-])/C=C/c1cn(CCCCCCCCCCCCn2cc(/C=C/[N+](=O)[O-])c3ccccc32)c2ccccc12 | growth inhibition | 6.45% (inactive) |
| CCN(CC)CCn1c2cc3c(cc2c(=O)c2cccnc21)OCO3 | growth inhibition | 13.8% (inactive) |
| Cc1ccc2nc(=O)c3cccnc3n2c1 | growth inhibition | 5.1% (inactive) |
| Cc1noc(NS(=O)(=O)c2ccc(Nc3nc(CC(=O)Nc4ccccc4)cs3)cc2)c1C | growth inhibition | 12.7% (inactive) |

Cited source for all entries: PubChem BioAssay (NCI)
